- METHOD: qHTS of pediatric cancer cell lines to identify multiple opportunities for drug repurposing: Primary screen for BT-12 cells (AID 1347101); also: nearly all actives have a fitted effect of over 25% in size
- CONDITION NOTES: BT-12 viability, CellTiter-Glo luminescence, 48 h; series mostly up to 57.3 µM
Results filed as inconclusive are left out. Activity calls are given as the source filed them. Calls follow the shape of the dose curve; as a rule, active = well fitted cell-killing curve with a large enough effect; inconclusive = small, poorly fitted or top-dose-only effect; inactive = flat fitted curve, though single readings scatter.
Your response should consist of one outcome taken from TRUE = active, FALSE = inactive

Would you please look over these solved cases?
In [3]: df
Out[3]:
                                   compound  assigned_label
0              O=C(O)c1cc(=O)[nH]c(=O)[nH]1           FALSE
1  COc1ccc(-c2ccc3cc(C(=O)O)ccc3c2)cc1C12CC3CC(CC(C3)C1)C2           FALSE
2  Cc1cccc(Nc2ccncc2S(=O)(=O)NC(=O)NC(C)C)c1           FALSE

What did the test return for CCN(C)C(=O)Oc1cccc([C@H](C)N(C)C)c1 ?
FALSE

What did the test return for NC(=O)c1cccnc1 ?
FALSE

What did the test return for CC1=C(C(=O)O)N2C(=O)[C@@H](NC(=O)C(N)c3ccccc3)[C@H]2SC1 (stereo partly specified) ?
FALSE

What did the test return for Cc1ncc([N+](=O)[O-])n1CCO ?
FALSE

What did the test return for CCOC(=O)c1ccc(C#Cc2ccc3c(c2)C(C)(C)CCS3)nc1 ?
FALSE

What did the test return for NC(N)=NC(N)=NCCc1ccccc1 ?
TRUE

What did the test return for O[C@@H](CNC[C@H](O)[C@H]1CCc2cc(F)ccc2O1)[C@@H]1CCc2cc(F)ccc2O1 ?
TRUE

What did the test return for Nc1nc(N)nc(-c2cc(Cl)ccc2Cl)n1 ?
FALSE

What did the test return for CCOC(=O)[C@H](CCc1ccccc1)N[C@H]1CCc2ccccc2N(CC(=O)O)C1=O ?
TRUE

What did the test return for NS(=O)(=O)c1cc2c(cc1Cl)NC(C(Cl)Cl)NS2(=O)=O (stereo unspecified) ?
FALSE

What did the test return for O=C(O)c1cccnc1 ?
FALSE

What did the test return for OC(Cn1cncn1)(Cn1cncn1)c1ccc(F)cc1F ?
FALSE

What did the test return for CC1=NN(c2ccccc2)C(=O)C1 ?
FALSE

What did the test return for Cc1nnc(C(=O)NC(C)(C)c2nc(C(=O)NCc3ccc(F)cc3)c(O)c(=O)n2C)o1 ?
FALSE

What did the test return for CC(C)(C#N)c1cc(Cn2cncn2)cc(C(C)(C)C#N)c1 ?
FALSE

What did the test return for COc1c(N2CCNC(C)C2)c(F)cc2c(=O)c(C(=O)O)cn(C3CC3)c12 (stereo unspecified) ?
FALSE

What did the test return for CN1CCN(c2c(F)cc3c(=O)c(C(=O)O)cn(CCF)c3c2F)CC1 ?
FALSE

What did the test return for N[C@@H](Cc1ccc(O)c(O)c1)C(=O)O ?
FALSE
